Cited source for all entries: patent US10626144B2

Test system: Escherichia coli ATCC 25922
Test: MIC, broth microdilution (CLSI), reference strain
Settings: CAMHB
Square brackets hold non-standard residues; d marks the D form. Peptide text beside a SMILES is read from it. Pro(5S-Me) = C[C@H]1CC[C@@H](C(=O)O)N1; Dab(3S-OH) = NC[C@H](O)[C@H](N)C(=O)O; ΔZArg = N=C(N)NCC/C=C(\N)C(=O)O; dOrn = NCCC[C@@H](N)C(=O)O; Pra = C#CC[C@H](N)C(=O)O
metric: Ec: MIC Escherichia coli ATCC 25922

compound: C#CC[C@H](NC(=O)[C@@H]1CCCN1C(=O)[C@@H](CCCN)NC(=O)CNC(=O)[C@H](C)NC(=O)[C@@H](NC(=O)[C@@H](N)CCCCN)[C@@H](O)CN)C(=O)N[C@@H](CCCCN)C(=O)N/C(=C\CCNC(=N)N)C(=O)O [24.135] (H-K[Dab(3S-OH)]AG[dOrn]P[Pra]K[ΔZArg]-OH)
target: Escherichia coli ATCC 25922
result: + (≤32 μg/mL)
--
compound: C[C@H](NC(=O)[C@@H](NC(=O)[C@@H](N)CCCCN)[C@@H](O)CN)C(=O)NCC(=O)N[C@H](CCCN)C(=O)N1[C@@H](C)CC[C@H]1C(=O)N[C@@H](Cc1cnc[nH]1)C(=O)N[C@@H](CCCCN)C(=O)N/C(=C\CCNC(=N)N)C(=O)O [24.145] (H-K[Dab(3S-OH)]AG[dOrn][Pro(5S-Me)]HK[ΔZArg]-OH)
target: Escherichia coli ATCC 25922
result: + (≤32 μg/mL)
